Data provenance is PubChem BioAssay (NCI).

Below: a set of entries, each annotated with reported growth.
Test system: SR leukemia
assay.text: NCI-60 one-dose screen, 48 h (100 = growth as untreated, 0 = no growth, -100 = all killed)
reported.conditions: 10 µM unless noted
Compounds without any hit were thinned out: in the full panel of roughly 83,000, 20% have a hit.
Your answer is read as %, so omit the unit and give the number.

Example entries and their recorded answers appear below.
compound | unit.of.measurement | growth
CCCCCCCCc1ccc(C(=O)Nc2cccc(O)c2)cc1 | % | 29.8
O=C1Nc2cc(-c3ccc(NS(=O)(=O)c4ccc([N+](=O)[O-])cc4)cc3)ccc2/C1=C/c1ccc[nH]1 | % | 12.9
Cc1nn(-c2ccccc2)c2nc(C)n(C(=O)N/N=C/c3cccc([N+](=O)[O-])c3)c(=O)c12 | % | 98.6
Cc1ccc(C2CC(c3ccc(NC(=O)Nc4ccccc4)cc3)=NN2c2ccc(S(N)(=O)=O)cc2)cc1 (stereo not drawn) | % | -12.7
C=CCSc1nnc(-c2ccc(-c3nc4ccccc4[nH]3)cc2)o1 | % | 81

Give the measured growth of COc1cc(CNC(=O)C[C@H](C)CCC=C(C)C)ccc1OCc1cn(-c2ccccc2Cl)nn1 .
48.5

Thanks! And C=CCn1c(O)c(N=Nc2nc(-c3cc4ccccc4oc3=O)cs2)c2ccccc21 ?
16.2

Param item: COc1cc(CNC(=O)C[C@H](C)CCC=C(C)C)ccc1OCc1cn(-c2ccc(Cl)c(Cl)c2)nn1
27.1

----------
System: HCT-15 colon
assay.text: NCI-60 one-dose screen, 48 h
reported.conditions: 10 µM unless noted
About 83,000 compounds went through this panel and 20% of them were active in at least one assay; those are over-represented in the sample as a whole. Active and inactive are the calls of the source. Rule for the calls: active = growth percent below 10; inactive = the rest.
Your answer must be one of the following: Y = active, N = inactive

Here are 5 compounds together with their reported answers.
compound | category.label
CS(=O)(=O)Nc1cncc(-c2ccc3ncnc(NCc4ccccc4)c3c2)c1 | N
Cc1nc(N)ncc1-c1ccc2ncnc(N3CCc4cc(F)c(Cl)cc43)c2c1 | N
Cc1ccc(C2CC(c3ccc(S(=O)(=O)NCCNc4nc(N(C)C)nc(N5CCOCC5)n4)cc3)=Nc3c(N)nc(N)nc3N2)cc1 (centres undefined) | N
O=C(c1cc2cc(OCCCN3CCC3)ccc2[nH]1)N1C[C@@H](CCl)c2c1cc(OCc1ccccc1)c1ccccc21 | Y
FC(F)(F)CN1CCN(CCn2c(C(F)(F)F)cc3c(Cl)ncnc32)CC1 | Y

Please share the test call associated with COc1ccc([C@H]2C(C(=O)c3ccc(Cl)cc3)C3(N[C@@H]2c2ccccc2)C(=O)Nc2ccccc23)cc1 (some centres undefined) .
N

Repeat with CC(=O)c1c2c(c3ccc4c5ccccc5ccc4n13)C(=O)c1ccccc1C2=O
N

Next compound: COC(=O)CSC1=C(C)C(=O)C(OC)=C(OC)C1=O
N

Note, next up: CS(=O)(=O)c1ccc(-n2nc(C(=O)NCc3ccccc3)cc2-c2ccc(Cl)cc2)cc1
N

----------
Test system: CAKI-1 renal
assay.text: NCI-60 one-dose screen, 48 h (100 = growth as untreated, 0 = no growth, -100 = all killed)
reported.conditions: 10 µM unless noted
About 83,000 compounds went through this panel and 20% of them were active in at least one assay; those are over-represented in the sample as a whole.
value.kind: growth (%)
# value in %; strip the unit string

Some solved entries appear below for comparison.
molecule | unit.of.measurement | growth
O=C(CSc1nc2c(c(=O)[nH]1)CCCC2)Nc1ccccc1C(=O)O | % | 89.5
N#CCc1nnc(NC(=O)c2ccc(-n3c(=O)[nH]c4ccccc4c3=O)cc2)s1 | % | 86.3
Cc1ccc(N=Nc2c(N)nn3c(-c4cc5cc(Br)ccc5oc4=O)ccnc23)cc1 | % | 80.8
Oc1ccc(Cl)c(Nc2ncnc3c2cnn3CC(Cl)c2ccc(Br)cc2)c1 (configuration not stated) | % | 18.3
CC1CCc2c(sc3nc(SCC(=O)c4cccc([N+](=O)[O-])c4)n(-c4ccccc4)c(=O)c23)C1 (configuration not stated) | % | 12.4
N#Cc1ccc(C(=O)NNC(=O)CSc2nc3sc4c(c3c(=O)n2-c2ccc(Cl)cc2)CCCC4)cc1 | % | 53.1

Can you share its growth? I mean this molecule: N#Cc1c(NC(=O)N2CCOCC2)n(-c2ccc(OC(F)(F)F)cc2)c2cc(F)ccc12
88.9

Now consider Cc1cc(N=C(N)c2ccccc2)ccc1OCCCCCCCCn1ccnc1 and answer again.
20.2

Try the molecule O=c1[nH]c2ccccc2cc1CSc1ccccc1Nc1nccc(-c2ccc3c(c2)OCO3)n1
16

Subsequent entry: Cc1nn(-c2ccccc2)c2nc(C)n(C(=O)N/N=C/c3cccc([N+](=O)[O-])c3)c(=O)c12
90.8

Next up: COc1ccc(NC(=O)Cn2c(/C=C/c3cccc(OC)c3)nc3ccccc3c2=O)cc1
50.9

What about this molecule? COc1cc(C2CC(c3cc(OC)c(OC)c(OC)c3)=Nc3c(N)nc(N)nc3N2)ccc1Oc1nc(Nc2ccc(F)cc2)nc(N(C)C)n1 (configuration not stated)
52.3
